These entries and their values trace back to patent US10039753B2.

- assayed.system: mutant G2019S LRRK2 (Homo sapiens, UniProt Q5S007, G2019S)
- Sequence (Q5S007 970-2527 G2019S limits assumed): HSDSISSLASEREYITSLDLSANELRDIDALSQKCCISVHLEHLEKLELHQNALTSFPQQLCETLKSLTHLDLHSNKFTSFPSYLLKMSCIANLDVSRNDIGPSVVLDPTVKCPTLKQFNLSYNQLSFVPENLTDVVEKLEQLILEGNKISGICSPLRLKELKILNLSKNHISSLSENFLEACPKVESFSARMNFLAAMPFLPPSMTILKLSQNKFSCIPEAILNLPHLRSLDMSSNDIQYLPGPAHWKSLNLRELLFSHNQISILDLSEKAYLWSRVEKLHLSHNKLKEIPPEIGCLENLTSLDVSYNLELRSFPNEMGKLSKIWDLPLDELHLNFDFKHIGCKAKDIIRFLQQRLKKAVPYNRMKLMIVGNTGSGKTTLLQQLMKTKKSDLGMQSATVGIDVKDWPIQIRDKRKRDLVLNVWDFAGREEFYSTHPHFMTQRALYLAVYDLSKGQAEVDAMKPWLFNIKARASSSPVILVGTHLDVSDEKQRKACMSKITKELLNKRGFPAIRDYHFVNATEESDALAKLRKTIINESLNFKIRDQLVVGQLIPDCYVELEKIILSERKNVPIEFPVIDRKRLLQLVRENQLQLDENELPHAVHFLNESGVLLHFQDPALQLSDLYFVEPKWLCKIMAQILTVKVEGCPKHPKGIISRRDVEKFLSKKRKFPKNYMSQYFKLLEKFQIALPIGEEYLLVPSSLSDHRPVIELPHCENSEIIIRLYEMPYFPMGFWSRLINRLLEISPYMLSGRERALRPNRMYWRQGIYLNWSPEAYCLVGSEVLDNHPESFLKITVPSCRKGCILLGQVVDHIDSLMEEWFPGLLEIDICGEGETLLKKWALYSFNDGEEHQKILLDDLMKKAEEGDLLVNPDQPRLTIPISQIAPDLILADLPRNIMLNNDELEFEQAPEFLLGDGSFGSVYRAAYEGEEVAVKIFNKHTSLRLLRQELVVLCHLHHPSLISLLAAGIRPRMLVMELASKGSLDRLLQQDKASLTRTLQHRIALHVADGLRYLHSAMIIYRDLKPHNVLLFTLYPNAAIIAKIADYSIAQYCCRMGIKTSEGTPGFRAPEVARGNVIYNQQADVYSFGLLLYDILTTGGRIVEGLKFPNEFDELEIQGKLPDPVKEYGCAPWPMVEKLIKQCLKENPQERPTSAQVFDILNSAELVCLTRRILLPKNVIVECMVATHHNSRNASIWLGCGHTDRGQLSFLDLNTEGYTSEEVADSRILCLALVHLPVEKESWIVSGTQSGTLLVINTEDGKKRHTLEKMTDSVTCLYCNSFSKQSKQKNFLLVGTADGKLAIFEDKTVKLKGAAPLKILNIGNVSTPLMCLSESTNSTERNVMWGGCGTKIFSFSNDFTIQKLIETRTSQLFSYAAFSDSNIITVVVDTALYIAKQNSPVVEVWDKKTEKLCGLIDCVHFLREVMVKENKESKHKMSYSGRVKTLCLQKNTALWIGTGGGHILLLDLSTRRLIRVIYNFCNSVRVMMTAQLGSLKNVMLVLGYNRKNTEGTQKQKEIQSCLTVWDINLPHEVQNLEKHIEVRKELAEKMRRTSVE
- test.name: LRRK2 Assay, Format 2 (Lantha Screen), G2019S mutant
- Type: biochemical
- Design: purchased Invitrogen PV4881
- assay.conditions: geometric mean of 2-4 determinations unless otherwise indicated (a: >=5; b: single determination); read-out: LRRK2, Format 2 G2019S IC50
- Experimental: LRRK2 kinase activity was measured using Lantha Screen technology from Invitrogen. […] Upon completion, the assay was stopped and detected with a terbium labeled anti-phospho-ERM antibody (Invitrogen, cat # PR8975A). […] After an incubation of 1 hour at room temperature, the plate was read on an Envision with an excitation wavelength of 340 nm and a reading emission at both 520 nm and 495 nm. […] Inhibition of mutant G2019S LRRK2 (Invitrogen cat # PV4881) was measured in the exact same method. […]
Structures can show the parent of a compound that is named as a salt.
Below, each of the compounds is paired with its reported IC50 value.
endpoint.label: IC50 (nM)

{"columns": ["compound", "numeric.readout"],
 "data": [
  ["Cc1cc(Cc2nc3cnc4ccc(C#N)cc4c3n2C2CCC2)no1 [Example 216, formate salt]", 38.6],
  ["C[C@@H]1C[C@H](n2c(Cn3cccn3)nc3cnc4ccc(Cl)cc4c32)CCO1 [Example 130, formate salt]", 3.84],
  ["C[C@@H]1C[C@H](n2c(C(F)(F)c3ccccn3)nc3cnc4ccc(C#N)cc4c32)CCO1 [Example 236, formate salt]", 11.9],
  ["C[C@@H]1C[C@H](n2c(Cc3ccccn3)nc3cnc4ccc(Cl)cc4c32)CCO1 [Example 250, formate salt]", 11],
  ["Cc1cc(Cc2nc3cnc4ccc(C#N)cc4c3n2[C@@H]2CC[C@H](F)C2)no1 (single isomer, unassigned) [Example 97]", 7.79],
  ["C[C@@H]1C[C@H](n2c(Cc3cn4ccccc4n3)nc3cnc4ccc(Cl)cc4c32)CCO1 [Example 167, trifluoroacetate salt]", 8.43],
  ["C[C@@H]1C[C@H](n2c(Cc3cc(CO)on3)nc3cnc4ccc(Cl)cc4c32)CCO1 [Example 138]", 3.72]
]}
